Target: GST-tagged KRAS-G12D (2-169) (Homo sapiens, UniProt P01116, G12D)
Sequence (P01116 2-169 isoform P01116-2 G12D): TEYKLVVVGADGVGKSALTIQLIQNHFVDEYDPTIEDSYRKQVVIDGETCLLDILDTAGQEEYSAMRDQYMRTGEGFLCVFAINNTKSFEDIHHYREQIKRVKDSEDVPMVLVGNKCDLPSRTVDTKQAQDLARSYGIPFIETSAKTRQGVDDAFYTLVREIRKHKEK
Assay: Nucleotide exchange assay (NEA), SOS-mediated, HTRF, KRAS G12D
Assay type: biochemical
Conditions: Table 4; IC50 extracted at 30 min; 20 nM SOScat; read-out: NEA G12D IC50
From the text: This activity is tightly regulated by GTPase activating proteins (GAPs) and guanine nucleotide exchange factors (GEFs). […] Homogenous time resolved fluorescence (HTRF) was used to detect SOS-mediated binding of a fluorescent GTP analog, GTP-DY-647P1 (Jena Biosciences NU-820-647P1) to GST-tagged KRAS-G12D (2-169) or to GST-tagged KRAS-G12V (2-169, Reaction Biology, MSC-11-540). […]
pIC50: −log10 of the molar value.
reportedMetric: pIC50

molecule="CC1(O)COCCN(c2nc(OC[C@@]34CCCN3C[C@H](F)C4)nc(N3CC4(C3)SCc3sc(N)c(C#N)c34)n2)C1 (stereo partly drawn)" observed="> 8.00"
molecule=N#Cc1c(N)sc2c1C1(CC2)CN(c2nc(OC[C@@]34CCCN3C[C@H](F)C4)nc(N(CCO)Cc3ccc[nH]c3=O)n2)C1 observed="6.00 to 7.00"
molecule=N#Cc1c(N)sc2c1C1(CN(c3nc(OC[C@@]45CCCN4C[C@H](F)C5)nc(N(CC(=O)O)Cc4cccnc4N)n3)C1)SC2 observed="7.00 to 8.00"

The measurements presented in this section are drawn from patent US12421254B2.
